# targetUnderTest: OmpR-His6 (Yersinia enterocolitica Ye9) (UniProt P74982)
# Sequence: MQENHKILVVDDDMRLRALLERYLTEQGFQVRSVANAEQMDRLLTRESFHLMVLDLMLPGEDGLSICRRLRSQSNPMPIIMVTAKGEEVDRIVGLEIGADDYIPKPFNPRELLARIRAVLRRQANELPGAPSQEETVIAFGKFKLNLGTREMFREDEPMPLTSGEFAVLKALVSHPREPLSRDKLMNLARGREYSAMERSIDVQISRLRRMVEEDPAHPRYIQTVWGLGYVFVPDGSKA
# protocol: EMSA
# assayContext: 50 mM Tris-HCl pH 8.0, 100 mM KCl, 1 mM EDTA, 1 mM DTT, 20 mM MgCl2, 12% glycerol, 100 ug/mL BSA, 0.1% Triton X-100; 22 C, 15 min; 0.05 or 0.3 pmol DNA in …
metricName: binding

residues	value
GCAGTCATATACTTAAATTATGCAACAATCCCATTCATCAATACATTGCATGATTAATCGGGCAAAGTGTGCAATTATATCTTTGTTAACAACCACGGTTTTCATTTGGGGCTAGCAGTTCTATAATGAGACGCAATTGAGAATATTGCGCCACGGATGTCATAGGCTGAACAGCCTTAATTTGAATCGATAGTAACAGGACTGAATCCGCATG (double strand) [F34]	binds
